# Tested on: HCV subgenomic replicon in Huh7.5 cells
# Measurement Description: Antiviral subgenomic replicon assay
# Type: cell-based
# Condition Context: Hepatitis C virus, Huh7.5, 48 h, read-out: IC50, 50% reduction in reporter (luciferase) expression levels
Metric Name: IC50 (µM)
Write the answer as a number in µM, unit excluded.

The reported IC50 of the compound CCC[C@H](NC(=O)[C@@H]1[C@H]2CCC[C@H]2CN1C(=O)[C@@H](NC(=O)[C@@H](NC(=O)c1cnc(C(=O)NCCCCCCNc2cccc3c2CN(C2CCC(=O)NC2=O)C3=O)cn1)C1CCCCC1)C(C)(C)C)C(=O)C(=O)NC1CC1 (some centres unmarked) was 3.04

The reported IC50 of the compound CCC[C@H](NC(=O)[C@@H]1[C@H]2CCC[C@H]2CN1C(=O)[C@@H](NC(=O)[C@@H](NC(=O)c1cnccn1)C1CCCCC1)C(C)(C)C)C(=O)C(=O)NC1CC1 [telaprevir, reference compound] was 0.24
